Target: T1, human PD-1 (#PD1-H82E4, AcroBiosystems) (human, UniProt Q15116 25-167)
T1 construct: bought
T1 sequence (Q15116 25-167 limits assumed): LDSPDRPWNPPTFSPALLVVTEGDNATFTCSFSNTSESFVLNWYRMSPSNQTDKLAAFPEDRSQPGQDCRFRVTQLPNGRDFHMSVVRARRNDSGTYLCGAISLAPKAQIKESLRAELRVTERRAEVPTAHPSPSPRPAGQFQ
Experiment: SPR, PD-1 on captured IgG1
quantity_name: kon (M⁻¹ s⁻¹)
Number in M⁻¹ s⁻¹, nothing else.

binder: DKR699 (antibody, human IgG1, V domains shown, human IgG1) VH: VQLVQSGAEVKKPGASVKVSCKASGYTFTNFYIHWVRQAPGQGLEWMGSIYPNYGDTAYNQKFKDRVTMTVDTSTSTAYMELRSLRSDDTAVYYCARGYSYAMDYWGQGTTVTVSS VL: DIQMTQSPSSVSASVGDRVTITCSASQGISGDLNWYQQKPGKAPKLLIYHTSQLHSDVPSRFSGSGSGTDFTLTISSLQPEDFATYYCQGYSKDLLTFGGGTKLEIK
kon (M⁻¹ s⁻¹): 200000

Switching to the query record.
Documented kon of KOB135 (antibody, human IgG1, V domains shown, human IgG1) VH: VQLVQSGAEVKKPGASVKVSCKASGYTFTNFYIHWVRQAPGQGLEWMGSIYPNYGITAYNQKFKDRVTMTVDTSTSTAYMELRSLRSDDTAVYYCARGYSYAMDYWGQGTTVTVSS VL: DIQMTQSPSSVSASVGDRVTITCSASQGISGDLNWYQQKPGKAPKLLIYHTSQQHSDVPSRFSGSGSGTDFTLTISSLQPEDFATYYCQGYSKDLLTFGGGTKLEIK : 329000

Recorded values, source patent EP4671273A1.
